Hi there, I'd appreciate the recorded EC50 for every entry that follows.
System: phospho-Akt in Panc10.05 (G12D)
Test: In-Cell Western phospho-Akt, Panc10.05
Format: cell-based
Conditions: Homo sapiens, Panc1005, 1 h; Panc10.05, one hour treatment; read-out: In-Cell Western Panc10.05 (G12D) Akt (P)
One number for each entry, in µM.

These solved cases illustrate the format of a correct answer.
INSERT INTO measurements (compound, quantitative_readout) VALUES
  ('Cc1nc(C(C)C)sc1C(=O)Nc1nc(-c2ccc3c(c2)CCC(=O)N3)cs1', 8),
  ('Cc1cc(C(=O)Nc2nc(-c3ccc4c(c3)CCC(=O)N4)cs2)n(C)n1', 27),
  ('CCc1cc(C(=O)Nc2nc(-c3ccc4c(c3)CCC(=O)N4)cs2)n(C)n1', 13),
  ('Cc1nc(C2CCC2)oc1C(=O)Nc1nc(-c2ccc3c(c2)CCC(=O)N3Cc2cccnc2)cs1', 17),
  ('CCn1nc(C)c(C(=O)Nc2nc(-c3ccc4c(c3)CCC(=O)N4CCOC)cs2)c1C', 1.5),
  ('Cc1nc(C)c(C(=O)Nc2nc(-c3ccc4c(c3)CCC(=O)N4CC3CCOC3)cs2)o1 (centres unmarked)', 23),
  ('COCCCN1C(=O)CCc2cc(-c3csc(NC(=O)c4oc(C)nc4C)n3)ccc21', 9),
  ('CCn1nccc1C(=O)Nc1nc(-c2ccc3c(c2)CCC(=O)N3)cs1', 13);

Value sought for every listed compound: EC50.
1. Cc1nn(C(C)C)cc1C(=O)Nc1nc(-c2ccc3c(c2)CCC(=O)N3Cc2cccnc2)cs1
2. CCn1nc(C2CC2)cc1C(=O)Nc1nc(-c2ccc3c(c2)CCC(=O)N3)cs1

**A:**
[2, 11]

# per-item lookup of EC50; items listed below
1. COC(=O)CCCN1C(=O)CCc2cc(-c3csc(NC(=O)c4oc(C)nc4C)n3)ccc21
2. CCc1nc(C)c(C(=O)Nc2nc(-c3ccc4c(c3)CCC(=O)N4)cs2)o1
3. Cc1nc(C2CCC2)oc1C(=O)Nc1nc(-c2ccc3c(c2)CCC(=O)N3)cs1
4. COC(=O)CCN1C(=O)CCc2cc(-c3csc(NC(=O)c4oc(C)nc4C)n3)ccc21
5. COCCN1C(=O)CCc2cc(-c3csc(NC(=O)c4oc(C)nc4C)n3)ccc21
6. COCCN1C(=O)CCc2cc(-c3csc(NC(=O)c4oc(C(C)C)nc4C)n3)ccc21
7. Cc1nn(C(C)C)c(C)c1C(=O)Nc1nc(-c2ccc3c(c2)CCC(=O)N3)cs1
8. Cn1nc(C(F)F)cc1C(=O)Nc1nc(-c2ccc3c(c2)CCC(=O)N3)cs1

**A:**
7
8
6
10
14
2
18
20

**Q:** Dear colleague, please send me the reported EC50 for Cc1nn(C)cc1C(=O)Nc1nc(-c2ccc3c(c2)CCC(=O)N3Cc2cccnc2)cs1 when you can.
**A:** 18

###

Tested on: HCC827 (K-Ras wild type cell line)
Experiment: Viability assay (CellTiterBlue, 72 hr) HCC827
Type: cell-based
Details: Homo sapiens, GI50, CellTiterBlue, HCC827 K-Ras wild-type
QUANTITY MEASURED: pIC50
Numbers only, as −log10 of the molar value.

Consider the reported pIC50 for these compounds:
INSERT INTO assay_data (mol, quantitative_readout) VALUES
  ('CCc1nc(C)c(C(=O)Nc2nc(-c3ccc4c(c3)CCC(=O)N4Cc3ccccn3)cs2)o1', 5.30),
  ('CCn1nc(C)c(C(=O)Nc2nc(-c3ccc4c(c3)CCC(=O)N4CCOC)cs2)c1C', 5.70);

Next compound, pIC50 to be filled in.
**Q:** Determine from records and report pIC50 for Cc1nn(C)cc1C(=O)Nc1nc(-c2ccc3c(c2)CCC(=O)N3)cs1
**A:** 5.22

###

Test system: phospho-Akt in HCC827 (Wild-type)
Assay: In-Cell Western phospho-Akt, HCC827
Type: cell-based
Settings: Homo sapiens, 1 h; HCC827, one hour treatment; read-out: In-Cell Western HCC827 (Wild-type) Akt (P)
QUANTITY MEASURED: EC50

Use the examples below as a reference point.
INSERT INTO results (compound, result) VALUES
  ('Cn1cc(C(=O)Nc2nc(-c3ccc4c(c3)CCC(=O)N4)cs2)c(C(F)(F)F)n1', '> 25 µM'),
  ('CCn1nc(C)c(C(=O)Nc2nc(-c3ccc4c(c3)CCC(=O)N4)cs2)c1C', '> 25 µM'),
  ('Cc1nn(-c2ccccc2)c(C)c1C(=O)Nc1nc(-c2ccc3c(c2)CCC(=O)N3)cs1', '> 25 µM');

// input: 5 compounds below; output: EC50 for each
1. CCCn1nc(C)c(C(=O)Nc2nc(-c3ccc4c(c3)CCC(=O)N4)cs2)c1C
2. Cc1nn(Cc2ccccc2)c(C)c1C(=O)Nc1nc(-c2ccc3c(c2)CCC(=O)N3)cs1
3. Cc1nc(C)c(C(=O)Nc2nc(-c3ccc4c(c3)CCC(=O)N4Cc3cccnc3)cs2)o1
4. Cc1nc(C)c(C(=O)Nc2nc(-c3ccc4c(c3)CCC(=O)N4CC3CCCOC3)cs2)o1 (centres unmarked)
5. Cc1nn(C(C)C)cc1C(=O)Nc1nc(-c2ccc3c(c2)CCC(=O)N3Cc2cccnc2)cs1

**A:**
1: > 25 µM; 2: > 25 µM; 3: 19 µM; 4: 15 µM; 5: > 25 µM

###

Molecular target: K-Ras G12D (Homo sapiens, UniProt P01116, G12D)
Construct: expressed in transfected cells; host or cells: 293H cells
Sequence (P01116 whole entry G12D): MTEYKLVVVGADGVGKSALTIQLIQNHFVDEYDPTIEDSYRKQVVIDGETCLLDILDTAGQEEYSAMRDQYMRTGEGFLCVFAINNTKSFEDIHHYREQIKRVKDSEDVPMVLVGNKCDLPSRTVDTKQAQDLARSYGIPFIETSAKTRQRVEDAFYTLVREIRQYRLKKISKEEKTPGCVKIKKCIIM
Experiment: G-LISA Ras activation, 293H cells transfected with G12D mutant
Assay type: cell-based
Details: compound 1 hour
Experimental: 293H cells were seeded in 6-wells at 0.6×10^6 cells per well and transfected next day with 5 μg of Ras wild-type, or G12C, G12D or G12V mutant DNA plasmid vector using transfection reagent Lipofectamine 3000. Next day cells were treated with 3.125-25 μM of Ras compounds for 1 hour. Wild-type transfected cells were subsequently treated with 100 ng/ml EGF for 2 minutes. […]
Consider the cut-off 5 µM. If the recorded IC50 is strictly smaller, the label is t; if not, the label is f.

Record excerpt, results attached:
INSERT INTO results (compound, label_value) VALUES
  ('CCn1nc(C)c(C(=O)Nc2nc(-c3ccc4c(c3)CCC(=O)N4Cc3cccnc3)cs2)c1C [Compound 114]', 't'),
  ('Cn1nc2ccccc2c1C(=O)Nc1nc(-c2ccc3c(c2)CCC(=O)N3)cs1 [Compound 26]', 'f'),
  ('COc1cccc(CN2C(=O)CCc3cc(-c4csc(NC(=O)c5oc(C)nc5C)n4)ccc32)c1OC [Compound 93]', 'f'),
  ('CCn1cc(C(=O)Nc2nc(-c3ccc4c(c3)CCC(=O)N4Cc3cccnc3)cs2)c(C)n1 [Compound 115]', 't'),
  ('Cc1nc(C2CCCC2)sc1C(=O)Nc1nc(-c2ccc3c(c2)CCC(=O)N3)cs1 [Compound 145]', 'f'),
  ('Cc1nn(C(C)(C)C)c(C)c1C(=O)Nc1nc(-c2ccc3c(c2)CCC(=O)N3)cs1 [Compound 57]', 'f');

**Q:** Just wondering, is IC50 of Cc1nc(C2CC2)oc1C(=O)Nc1nc(-c2ccc3c(c2)CCC(=O)N3Cc2ccccc2)cs1 [Compound 58] below 5 µM?
**A:** f

**Q:** Please state whether IC50 is below 5 µM for CCn1nccc1C(=O)Nc1nc(-c2ccc3c(c2)CCC(=O)N3)cs1 [Compound 46]
**A:** f

**Q:** Please indicate whether the reported IC50 of CCc1nc(C)c(C(=O)Nc2nc(-c3ccc4c(c3)CCC(=O)N4Cc3ccccc3)cs2)o1 [Compound 59] is strictly below 5 µM.
**A:** f

**Q:** Is 5 µM strictly greater than the compound's reported IC50? compound: Cc1nn(C)c(C)c1C(=O)Nc1nc(-c2ccc3c(c2)CCC(=O)N3)cs1 [Compound 40]
**A:** f

**Q:** Take the compound CCn1nc(C)c(C(=O)Nc2nc(-c3ccc4c(c3)CCC(=O)N4CCOC)cs2)c1C [Compound 119] and say whether its IC50 is less than 5 µM.
**A:** t

**Q:** Take the compound Cc1nc(C)c(C(=O)Nc2nc(-c3ccc4c(c3)CCC(=O)N4Cc3ccccc3)cs2)o1 [Compound 60] and say whether its IC50 is less than 5 µM.
**A:** f

**Q:** Below 5 µM on IC50? Entry Cc1nn(Cc2ccccc2)c(C)c1C(=O)Nc1nc(-c2ccc3c(c2)CCC(=O)N3)cs1 [Compound 56]
**A:** f

###

Test system: HCC827 (K-Ras wild type cell line)
Experiment: Viability assay (CellTiterBlue, 72 hr) HCC827
Type: cell-based
Settings: Homo sapiens, GI50, CellTiterBlue, HCC827 K-Ras wild-type
pIC50: −log10 of the molar value.
QUANTITY MEASURED: pIC50

# annotated cases, reported pIC50 shown
INSERT INTO measurements (mol, quantity_measured, result) VALUES
  ('CCc1nn(C)cc1C(=O)Nc1nc(-c2ccc3c(c2)CCC(=O)N3)cs1', 'pIC50', 5.15),
  ('Cn1ncc(C(=O)Nc2nc(-c3ccc4c(c3)CCC(=O)N4)cs2)c1C1CC1', 'pIC50', 5.15),
  ('Cc1nc(C)c(C(=O)Nc2nc(-c3ccc4c(c3)CCC(=O)N4CCN(C)C)cs2)o1', 'pIC50', 5.30);

Please look at the items below and tell me pIC50 for each one, in order.
1. Cc1nc(C)c(C(=O)Nc2nc(-c3ccc4c(c3)CCC(=O)N4Cc3cccnc3)cs2)o1
2. Cc1nc(C(=O)Nc2nc(-c3ccc4c(c3)CCC(=O)N4)cs2)c(C)s1
3. Cc1nc(C(=O)Nc2nc(-c3ccc4c(c3)CCC(=O)N4)cs2)c(C)o1
4. Cn1cc(C(=O)Nc2nc(-c3ccc4c(c3)CCC(=O)N4)cs2)c(C(C)(C)C)n1

**A:**
["< 4.60", "< 4.60", "< 4.60", "< 4.60"]
